Recorded measurements of Kb, one per entry
target under test: cardiac β-receptors (Cavia porcellus)
Construct: on the isolated, spontaneously beating, right atrium of the guinea pig; from tissue; host or cells: guinea pig right atrium (isolated, spontaneously beating)
Sequence (H0W3H1 1-470): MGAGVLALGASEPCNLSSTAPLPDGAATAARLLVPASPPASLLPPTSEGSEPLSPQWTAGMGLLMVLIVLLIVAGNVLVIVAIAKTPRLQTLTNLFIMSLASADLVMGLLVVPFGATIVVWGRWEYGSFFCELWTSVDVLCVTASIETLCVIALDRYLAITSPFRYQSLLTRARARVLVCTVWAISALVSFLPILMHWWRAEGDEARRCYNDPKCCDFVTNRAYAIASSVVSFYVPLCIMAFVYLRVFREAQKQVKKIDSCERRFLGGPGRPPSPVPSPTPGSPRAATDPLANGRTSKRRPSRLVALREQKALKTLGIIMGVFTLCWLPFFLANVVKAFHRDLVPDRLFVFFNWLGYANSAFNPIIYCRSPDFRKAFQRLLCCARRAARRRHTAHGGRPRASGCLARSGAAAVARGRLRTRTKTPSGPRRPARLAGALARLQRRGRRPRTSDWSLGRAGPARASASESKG
assay summary: antagonism to cardiac β-receptors on isolated, spontaneously beating right atrium (isoprenaline chronotropism, pA2)
conditions: isolated right atrium guinea pig, vs isoprenaline; R = isopropyl for A-E
Where a name gives a salt, the structure may show the parent alone.
Record the result as number plus unit.

Measured Kb of CC(C)NCC(O)COc1ccccc1OCC(O)CNC(C)C (stereo not drawn) [A, dihydrochloride] : 324 nM

Measured Kb of Cc1cccc(OCC(O)CNC(C)C)c1OCC(O)CNC(C)C.Cl.Cl (stereo not drawn) [B, dihydrochloride] : 3310 nM

Measured Kb of CC(C)NCC(O)COc1cccc(C(C)C)c1OCC(O)CNC(C)C (stereo not drawn) [C] : 25700 nM

Measured Kb of CC(C)NCC(O)COc1ccccc1 (stereo not drawn) [G, 1-(isopropylamino)-3-phenoxy-2-propanol, reference compound] : 0.977 nM

Measured Kb of CC(C)NCC(O)COc1ccc(C(C)C)cc1OCC(O)CNC(C)C.Cl.Cl (stereo not drawn) [E, dihydrochloride] : 2290 nM

Measured Kb of Cc1ccc(OCC(O)CNC(C)C)c(OCC(O)CNC(C)C)c1.Cl.Cl (stereo not drawn) [D, dihydrochloride] : 603 nM

* * *

target under test: β-adrenergic (guinea pig tracheal chain) (Cavia porcellus, UniProt Q8K4Z4)
Construct: determined on the guinea pig tracheal chain; from tissue; host or cells: guinea pig tracheal chain (isolated)
Sequence (Q8K4Z4 whole entry): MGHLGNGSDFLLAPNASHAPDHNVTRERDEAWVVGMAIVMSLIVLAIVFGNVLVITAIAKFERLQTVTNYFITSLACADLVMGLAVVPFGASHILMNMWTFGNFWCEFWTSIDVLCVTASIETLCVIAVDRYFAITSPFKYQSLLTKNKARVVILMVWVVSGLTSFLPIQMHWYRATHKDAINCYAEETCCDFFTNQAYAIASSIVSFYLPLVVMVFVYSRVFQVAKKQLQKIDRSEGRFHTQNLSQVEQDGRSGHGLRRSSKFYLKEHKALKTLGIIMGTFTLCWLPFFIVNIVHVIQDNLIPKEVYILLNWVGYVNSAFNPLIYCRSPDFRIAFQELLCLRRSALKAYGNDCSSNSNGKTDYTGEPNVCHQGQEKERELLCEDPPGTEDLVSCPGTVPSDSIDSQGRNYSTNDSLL
assay summary: β-adrenergic blocking activity on guinea pig tracheal chain (antagonism of isoprenaline relaxation, pA2)
conditions: vs isoprenaline, R = isopropyl for A-E
Counter-ions that a name gives are not always drawn.
measure: pA2 trachea

| molecule | pA2 trachea |
| --- | --- |
| Cc1cccc(OCC(O)CNC(C)C)c1OCC(O)CNC(C)C.Cl.Cl (centres unmarked) [B] | 5.80 (±0.08) |

# Cc1ccc(OCC(O)CNC(C)C)c(OCC(O)CNC(C)C)c1.Cl.Cl (centres unmarked) [D] with β-adrenergic (guinea pig tracheal chain) (Cavia porcellus, UniProt Q8K4Z4): pA2 trachea is 6.66 (±0.09)

# CC(C)NCC(O)COc1cccc(C(C)C)c1OCC(O)CNC(C)C (centres unmarked) [C] with β-adrenergic (guinea pig tracheal chain) (Cavia porcellus, UniProt Q8K4Z4): pA2 trachea is 5.35 (±0.11)

# CC(C)NCC(O)COc1ccc(C(C)C)cc1OCC(O)CNC(C)C.Cl.Cl (centres unmarked) [E] with β-adrenergic (guinea pig tracheal chain) (Cavia porcellus, UniProt Q8K4Z4): pA2 trachea is 6.48 (±0.09)

# CC(C)NCC(O)COc1ccccc1OCC(O)CNC(C)C (centres unmarked) [A, dihydrochloride] with β-adrenergic (guinea pig tracheal chain) (Cavia porcellus, UniProt Q8K4Z4): pA2 trachea is 6.73 (±0.05)
